Hello, the source for this data is the Deep4Chem optical property database, in case you need it.

Assay: solvent given as SMILES
Details: in C1CCOC1
measureName: fluorescence lifetime

Lookup result for C(=C\c1ccc(N(c2ccccc2)c2ccccc2)cc1)/c1ccc(/C=C/c2ccc(N(c3ccccc3)c3ccccc3)cc2)cc1 ; measured fluorescence lifetime: 1.25 ns

Kindly note the recorded fluorescence lifetime for CN(C)c1ccc(C(=Cc2ccc(C=O)cc2)c2ccc(N(C)C)cc2)cc1 , which is 7 ns

Form field fluorescence lifetime, entry N#Cc1cccc2ccccc12 : 11 ns

# fluorescence lifetime (compound: Cc1cc(C)c(C2=C(c3c(C)sc(-c4ccc(-c5nc(-c6ccccc6)c(-c6ccccc6)[nH]5)cc4)c3C)C(F)(F)C(F)(F)C2(F)F)s1 ) is 0.42 ns

Form field fluorescence lifetime, entry CN(C)c1ccc(-c2nc3c(c4c2-c2ccc(C#N)cc2CC4)-c2ccc(C#N)cc2CC3)cc1 : 2.93 ns

Just so you know, measured fluorescence lifetime for CC(=O)c1ccc2ccc3cccc4ccc1c2c34 came out at 13.4 ns

The measured fluorescence lifetime associated with N#Cc1ccc2[nH]ccc2c1 reads 4.4 ns

Input CC1=CC(c2ccc3cc(N(C)C)ccc3c2)=[O+][B-](F)(F)O1 . Output fluorescence lifetime: 3.56 ns

// fluorescence lifetime value for CCC(CC)COC1=CC2=C3c4cc(OCC(CC)CC)c(-c5cccs5)n4[B-](F)(F)[n+]4nnn(c43)[B-](F)(F)[N+]2=C1c1cccs1 : 0.5 ns

Recorded result, N#CC(C#N)=C(/C=C/c1cc2c3c(c1)CCCN3CCC2)c1ccc2c3c(cccc13)CC2 , fluorescence lifetime: 5.6 ns

---

For each record, write down the corresponding fluorescence lifetime.
Assay: solvent given as SMILES
Details: in CCCCCCO
Numbers only here, please. The scale is ns.

GET /value?item= CCC1(CC)c2cc(-c3ccc(C(C)(C)C)cc3)ccc2-c2ccc(-c3ccc4c(c3)C(CC)(CC)c3cc(-c5ccc6c(c5)C(CC)(CC)c5cc(-c7ccc(C(C)(C)C)cc7)ccc5-6)ccc3-4)cc21 &field=fluorescence lifetime returns 0.64

Entry COc1cc2[nH]c3c(c2cc1OCC(=O)O)CCCC3=O ; fluorescence lifetime = 1.17

For reference, reported fluorescence lifetime for CCC1(CC)c2cc(-c3ccc4c(c3)C(CC)(CC)c3cc(C(C)(C)C)ccc3-4)ccc2-c2ccc(-c3ccc4c(c3)C(CC)(CC)c3cc(C(C)(C)C)ccc3-4)cc21 stands at 0.76

Summary for this compound, CCC1(CC)c2cc(-c3ccc(-c4ccc5c(c4)C(CC)(CC)c4cc(C(C)(C)C)ccc4-5)cc3)ccc2-c2ccc(C(C)(C)C)cc21 : fluorescence lifetime is 0.81

Reported fluorescence lifetime of COC(=O)C(Cc1ccc2oc(-c3ccc(N(C)C)cc3)nc2c1)NC(=O)OC(C)(C)C (stereo not drawn) : 1.32

Field fluorescence lifetime (entry COC(=O)C(Cc1ccc2oc(-c3ccc(N(C)c4ccccc4)cc3)nc2c1)NC(=O)OC(C)(C)C (stereo not drawn) ) reads 4.64

Notebook: COC(=O)C(Cc1ccc2oc(-c3ccc4c(c3)c3ccccc3n4-c3ccccc3)nc2c1)NC(=O)OC(C)(C)C (stereo not drawn) , fluorescence lifetime read as 1.56

Per the records, this compound ( COC(=O)C(Cc1ccc2oc(-c3ccc(Nc4ccccc4)cc3)nc2c1)NC(=O)OC(C)(C)C (stereo not drawn) ) has fluorescence lifetime equal to 2.41
